TESTED_TARGET: D(1A) dopamine receptor (Homo sapiens, UniProt P21728); also: assay procedure not described here
Sequence (P21728 whole entry): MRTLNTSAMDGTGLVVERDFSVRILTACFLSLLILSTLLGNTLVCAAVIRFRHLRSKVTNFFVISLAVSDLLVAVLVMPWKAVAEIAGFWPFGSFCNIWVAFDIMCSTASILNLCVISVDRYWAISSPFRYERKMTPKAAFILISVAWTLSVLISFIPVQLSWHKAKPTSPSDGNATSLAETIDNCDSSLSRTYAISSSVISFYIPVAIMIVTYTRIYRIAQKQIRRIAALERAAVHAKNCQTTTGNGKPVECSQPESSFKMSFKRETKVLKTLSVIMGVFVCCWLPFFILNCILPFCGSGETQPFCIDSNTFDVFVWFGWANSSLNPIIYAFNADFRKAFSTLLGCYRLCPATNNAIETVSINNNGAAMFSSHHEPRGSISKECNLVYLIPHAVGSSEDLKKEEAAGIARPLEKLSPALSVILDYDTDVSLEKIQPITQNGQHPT
Type: functional, cell-based
Listed below: AC50 values for each entry.

MOLECULE	TESTED_TARGET	AC50
C[C@]12C=CC(=O)N[C@@H]1CC[C@@H]1[C@@H]2CC[C@]2(C)[C@@H](C(=O)Nc3cc(C(F)(F)F)ccc3C(F)(F)F)CC[C@@H]12 [DUTASTERIDE]	D(1A) dopamine receptor (Homo sapiens, UniProt P21728)	> 10 µM
COc1ccccc1Oc1c(NS(=O)(=O)c2ccc(C(C)(C)C)cc2)nc(-c2ncccn2)nc1OCCO	D(1A) dopamine receptor (Homo sapiens, UniProt P21728)	> 10 µM
Cc1ncc2n1-c1ccc(Cl)cc1C(c1ccccc1F)=NC2	D(1A) dopamine receptor (Homo sapiens, UniProt P21728)	> 30 µM
C#C[C@]1(O)CC[C@H]2[C@@H]3CCC4=CC(=O)CC[C@@H]4[C@H]3C(=C)C[C@@]21CC	D(1A) dopamine receptor (Homo sapiens, UniProt P21728)	> 30 µM
CCCCC1C(=O)N(c2ccccc2)N(c2ccccc2)C1=O	D(1A) dopamine receptor (Homo sapiens, UniProt P21728)	> 10 µM
COc1ccc(CC2c3cc(OC)c(OC)cc3CC[N+]2(C)CCC(=O)OCCCCCOC(=O)CC[N+]2(C)CCc3cc(OC)c(OC)cc3C2Cc2ccc(OC)c(OC)c2)cc1OC (centres undefined)	D(1A) dopamine receptor (Homo sapiens, UniProt P21728)	> 30 µM
C[C@]12CC[C@@H]3c4ccc(O)cc4C[C@@H](CCCCCCCCC[S+]([O-])CCCC(F)(F)C(F)(F)F)[C@H]3[C@@H]1CC[C@@H]2O (some centres undefined)	D(1A) dopamine receptor (Homo sapiens, UniProt P21728)	> 30 µM
COCC1=C(C(=O)O)N2C(=O)[C@@H](NC(=O)/C(=N\OC)c3csc(N)n3)[C@H]2SC1	D(1A) dopamine receptor (Homo sapiens, UniProt P21728)	> 30 µM
CC(C)[C@H](N)C(=O)OCC(CO)OCn1cnc2c(=O)nc(N)[nH]c21 (some centres undefined)	D(1A) dopamine receptor (Homo sapiens, UniProt P21728)	> 30 µM
O=C1CCc2cc(OCCCCc3nnnn3C3CCCCC3)ccc2N1	D(1A) dopamine receptor (Homo sapiens, UniProt P21728)	> 30 µM
CCC(=O)O[C@H]1CC[C@H]2[C@@H]3CCC4=CC(=O)CC[C@]4(C)[C@H]3CC[C@]12C [TESTOSTERONE PROPIONATE]	D(1A) dopamine receptor (Homo sapiens, UniProt P21728)	> 10 µM
C=C1/C(=C\C=C2/CCC[C@]3(C)[C@@H]([C@H](C)/C=C/[C@@H](O)C4CC4)CC[C@@H]23)C[C@@H](O)C[C@@H]1O	D(1A) dopamine receptor (Homo sapiens, UniProt P21728)	> 30 µM
CCC(C)C(CC)C(N)=O (centres undefined) [VALNOCTAMIDE]	D(1A) dopamine receptor (Homo sapiens, UniProt P21728)	> 30 µM
CCCCC(=O)O[C@]1(C(=O)CO)[C@@H](C)C[C@H]2[C@@H]3CCC4=CC(=O)C=C[C@]4(C)[C@@]3(F)[C@@H](O)C[C@@]21C [BETAMETHASONE VALERATE]	D(1A) dopamine receptor (Homo sapiens, UniProt P21728)	> 10 µM
COc1ccccc1OCCNCC(O)COc1cccc2[nH]c3ccccc3c12 (centres undefined)	D(1A) dopamine receptor (Homo sapiens, UniProt P21728)	> 10 µM
Cc1onc(-c2ccccc2)c1-c1ccc(S(N)(=O)=O)cc1	D(1A) dopamine receptor (Homo sapiens, UniProt P21728)	> 10 µM
O=C(O)CCNC(=O)c1ccccc1	D(1A) dopamine receptor (Homo sapiens, UniProt P21728)	> 30 µM
C=CC[C@@H]1/C=C(\C)C[C@H](C)C[C@H](OC)[C@H]2O[C@@](O)(C(=O)C(=O)N3CCCC[C@H]3C(=O)O[C@H](/C(C)=C/[C@@H]3CC[C@@H](O)[C@H](OC)C3)[C@H](C)[C@@H](O)CC1=O)[C@H](C)C[C@@H]2OC [TACROLIMUS ANHYDROUS]	D(1A) dopamine receptor (Homo sapiens, UniProt P21728)	> 30 µM
C=CCNc1nc(NCC=C)nc(N2CCN(C(c3ccc(F)cc3)c3ccc(F)cc3)CC2)n1	D(1A) dopamine receptor (Homo sapiens, UniProt P21728)	> 30 µM
CC(=O)[C@@]1(O)CC[C@H]2[C@@H]3C=C(Cl)C4=CC(=O)[C@@H]5C[C@@H]5[C@]4(C)[C@H]3CC[C@@]21C	D(1A) dopamine receptor (Homo sapiens, UniProt P21728)	2.07 µM
C[N@+]1(CCF)[C@@H]2CC[C@H]1C[C@@H](OC(=O)C(O)(c1ccccc1)c1ccccc1)C2	D(1A) dopamine receptor (Homo sapiens, UniProt P21728)	> 30 µM
CCC(=O)O[C@]1(C(=O)SCF)[C@H](C)C[C@H]2[C@@H]3C[C@H](F)C4=CC(=O)C=C[C@]4(C)[C@@]3(F)[C@@H](O)C[C@@]21C [FLUTICASONE PROPIONATE]	D(1A) dopamine receptor (Homo sapiens, UniProt P21728)	> 30 µM
CCCC(CCC)C(=O)O	D(1A) dopamine receptor (Homo sapiens, UniProt P21728)	> 10 µM
Cc1noc(NS(=O)(=O)c2ccc(N)cc2)c1C	D(1A) dopamine receptor (Homo sapiens, UniProt P21728)	> 10 µM
CCOC(=O)O[C@]1(C(=O)OCCl)CC[C@H]2[C@@H]3CCC4=CC(=O)C=C[C@]4(C)[C@H]3[C@@H](O)C[C@@]21C [LOTEPREDNOL ETABONATE]	D(1A) dopamine receptor (Homo sapiens, UniProt P21728)	> 30 µM
CCOC(=O)c1cncn1[C@H](C)c1ccccc1 [ETOMIDATE]	D(1A) dopamine receptor (Homo sapiens, UniProt P21728)	> 10 µM
CCN(CC)CCNC(=O)c1cc(S(C)(=O)=O)ccc1OC [TIAPRIDE]	D(1A) dopamine receptor (Homo sapiens, UniProt P21728)	> 30 µM
CC(=O)OCC(=O)[C@@]1(O)[C@H](C)C[C@H]2[C@@H]3CCC4=CC(=O)C=C[C@]4(C)[C@@]3(F)[C@@H](O)C[C@@]21C [DEXAMETHASONE ACETATE]	D(1A) dopamine receptor (Homo sapiens, UniProt P21728)	> 10 µM
OC[C@H]1O[C@@](CO)(O[C@H]2O[C@H](CO)[C@@H](O)[C@H](O)[C@H]2O)[C@@H](O)[C@@H]1O	D(1A) dopamine receptor (Homo sapiens, UniProt P21728)	> 30 µM
